experiment: Solubility of the compound in Japanese Pharmacopoeia First Fluid of pH 6.8 by HPLC; format: physicochemical
Measured solubility determines class: Low (below 100 µg/mL), Medium (100 µg/mL to below 200 µg/mL), High (200 µg/mL or more)

// return the class label for "CN1CCc2nc(C(=O)Nc3ccccc3CNC(=O)c3cccc(Cl)c3)sc2C1"
Medium

Form: Item = "CN1CCc2nc(C(=O)Nc3ncccc3CNC(=O)c3ccc(Cl)s3)sc2C1" ; Class = ?
Medium

Please let me know in which category the item "CN1CCc2nc(C(=O)Nc3ccccc3CNC(=O)c3ccc(Cl)cn3)sc2C1" belongs.
High

Categorize the following entry: "O=C(NCc1ccccc1C(=O)Nc1ccc(N2CCOCC2=O)cc1)c1ccc(Cl)s1"
Medium

Record "CC(C)N1CCC(C(=O)Nc2ccccc2CNC(=O)c2ccc(Cl)s2)CC1" — which class?
High

Class? Entry: CN1CCc2nc(C(=O)N[C@@H]3CCCC[C@H]3CNC(=O)c3ccc(Cl)s3)sc2C1 (relative stereo)
High

Sort "CN1CCc2nc(C(=O)Nc3cnccc3CNC(=O)c3ccc(Cl)s3)sc2C1" into one of the categories.
High

Entry "CN1CCc2nc(C(=O)Nc3ccccc3CNC(=O)c3ccc(Cl)cc3)sc2C1" belongs to which category?
Low
